Data provenance is patent US11219221B2.

Biological target: Spirulina subsalsa PPO CyPPO16 (SEQ ID NO: 1) variant A162C (MBP fusion)
Assay: PPO enzyme inhibition (IC50), MBP-fused PPO
Conditions: 50 μM protoporphyrinogen IX, pH 8.0, room temperature, 30 min
Procedure: Thus, PPO proteins of wild type and variants were expressed as fused to MBP and were used for experiments. The following process for purification of PPO protein was performed in a 4° C. cold room. […] When the protein was no longer detected, the washing procedure was terminated. […] The protein concentration of each eluent was determined and the elution was stopped when the protein was no longer detected. Ten microliter of each fraction was investigated for protein quantification and SDS-PAGE analysis. […]
attribute.measured: pIC50
Field pIC50 (float): negative decimal logarithm of the concentration in molar.

Problem: Look at this molecule and give its reported pIC50. COC(=O)CCNC(=O)C(C)Sc1cc(-n2c(=O)cc(C(F)(F)F)n(C)c2=O)c(F)cc1Cl (stereo not shown)
Solution: 7.10

---

biological target: Thermosynechococcus sp. NK55a PPO CyPPO17 (SEQ ID NO: 3) variant F160A (MBP fusion); assay: PPO enzyme inhibition (IC50), MBP-fused PPO; settings: 50 μM protoporphyrinogen IX, pH 8.0, room temperature, 30 min
attribute.measured: IC50
A bare number is not enough; add the unit after it.

Problem: Query (molecule): COC(=O)CCNC(=O)C(C)Sc1cc(-n2c(=O)cc(C(F)(F)F)n(C)c2=O)c(F)cc1Cl (stereo not shown) ; field requested: IC50
Solution: 115 nM

---

target: Thermosynechococcus sp. NK55a PPO CyPPO17 (SEQ ID NO: 3) variant R88A (MBP fusion); test: PPO enzyme inhibition (IC50), MBP-fused PPO; conditions: 50 μM protoporphyrinogen IX, pH 8.0, room temperature, 30 min
attribute.measured: IC50
Give your result as the value with the unit written after it.

Problem: Which IC50 value is on record for COC(=O)CCNC(=O)C(C)Sc1cc(-n2c(=O)cc(C(F)(F)F)n(C)c2=O)c(F)cc1Cl (stereo not shown) ?
Solution: 152 nM

---

biological target: Thermosynechococcus sp. NK55a PPO CyPPO17 (SEQ ID NO: 3) variant A166C (MBP fusion); test: PPO enzyme inhibition (IC50), MBP-fused PPO; settings: 50 μM protoporphyrinogen IX, pH 8.0, room temperature, 30 min
attribute.measured: pIC50
Scale: negative log10 of molar concentration, which is what pIC50 denotes.

Problem: Consider the compound shown here: COC(=O)CCNC(=O)C(C)Sc1cc(-n2c(=O)cc(C(F)(F)F)n(C)c2=O)c(F)cc1Cl (stereo not shown) What is its recorded pIC50?
Solution: 6.66

---

target: Thermosynechococcus sp. NK55a PPO CyPPO17 (SEQ ID NO: 3) variant V304M (MBP fusion); assay: PPO enzyme inhibition (IC50), MBP-fused PPO; details: 50 μM protoporphyrinogen IX, pH 8.0, room temperature, 30 min
attribute.measured: IC50 (µM)
Give the number; µM is assumed, so skip it.

Problem: Fill in the blank: the reported IC50 of COC(=O)CCNC(=O)C(C)Sc1cc(-n2c(=O)cc(C(F)(F)F)n(C)c2=O)c(F)cc1Cl (stereo not shown) [tiafenacil] is ____.
Solution: 0.102

---

target: Thermosynechococcus sp. NK55a PPO CyPPO17 (SEQ ID NO: 3) variant V164C (MBP fusion); assay: PPO enzyme inhibition (IC50), MBP-fused PPO; conditions: 50 μM protoporphyrinogen IX, pH 8.0, room temperature, 30 min
attribute.measured: IC50

Problem: What does the data say about its IC50? Entry: COC(=O)CCNC(=O)C(C)Sc1cc(-n2c(=O)cc(C(F)(F)F)n(C)c2=O)c(F)cc1Cl (stereo not shown)
Solution: 87 nM

---

target: Spirulina subsalsa PPO CyPPO16 (SEQ ID NO: 1) variant F324V (MBP fusion); assay: PPO enzyme inhibition (IC50), MBP-fused PPO; settings: 50 μM protoporphyrinogen IX, pH 8.0, room temperature, 30 min
attribute.measured: IC50 (nM)
Enter your answer as a number in nM; do not include the unit.

Problem: Param readout = IC50; param system = Spirulina subsalsa PPO CyPPO16 (SEQ ID NO: 1) variant F324V (MBP fusion); param query = COC(=O)CCNC(=O)C(C)Sc1cc(-n2c(=O)cc(C(F)(F)F)n(C)c2=O)c(F)cc1Cl (stereo not shown) [tiafenacil] ; response: value
Solution: 103

---

molecular target: Spirulina subsalsa PPO CyPPO16 (SEQ ID NO: 1) variant R85A (MBP fusion); assay: PPO enzyme inhibition (IC50), MBP-fused PPO; conditions: 50 μM protoporphyrinogen IX, pH 8.0, room temperature, 30 min
Exercise: for every item that follows, state its recorded IC50.
Write down the numeric answer in nM and omit the unit.

Problem: Fill in the blank: the reported IC50 of C#CCN1C(=O)COc2cc(F)c(N3C(=O)C4=C(CCCC4)C3=O)cc21 [flumioxazin] is ____.
Solution: 59

Problem: So what's the measured IC50 for this one? Cc1nn(-c2cc(NS(C)(=O)=O)c(Cl)cc2Cl)c(=O)n1C(F)F [sulfentrazone]
Solution: 1040

Problem: Recorded IC50 for COC(=O)CCNC(=O)C(C)Sc1cc(-n2c(=O)cc(C(F)(F)F)n(C)c2=O)c(F)cc1Cl (stereo not drawn) [tiafenacil] , please?
Solution: 119

---

Molecular target: Thermosynechococcus sp. NK55a PPO CyPPO17 (SEQ ID NO: 3) variant A166L (MBP fusion)
Assay: PPO enzyme inhibition (IC50), MBP-fused PPO
Details: 50 μM protoporphyrinogen IX, pH 8.0, room temperature, 30 min
Description: Thus, PPO proteins of wild type and variants were expressed as fused to MBP and were used for experiments. The following process for purification of PPO protein was performed in a 4° C. cold room. […] When the protein was no longer detected, the washing procedure was terminated. […] The protein concentration of each eluent was determined and the elution was stopped when the protein was no longer detected. Ten microliter of each fraction was investigated for protein quantification and SDS-PAGE analysis. […]
attribute.measured: pIC50
# pIC50 is unitless: minus log10 of the molar concentration; print number only

Problem: Look up pIC50: COC(=O)CCNC(=O)C(C)Sc1cc(-n2c(=O)cc(C(F)(F)F)n(C)c2=O)c(F)cc1Cl (stereo not shown)
Solution: 5.95

---

target: Thermosynechococcus sp. NK55a PPO CyPPO17 (SEQ ID NO: 3) variant L326T (MBP fusion); test: PPO enzyme inhibition (IC50), MBP-fused PPO; details: 50 μM protoporphyrinogen IX, pH 8.0, room temperature, 30 min
attribute.measured: pIC50
The meaning of pIC50 here: minus log10 of the concentration in molar units.

Problem: Lookup: pIC50 / Thermosynechococcus sp. NK55a PPO CyPPO17 (SEQ ID NO: 3) variant L326T (MBP fusion) / COC(=O)CCNC(=O)C(C)Sc1cc(-n2c(=O)cc(C(F)(F)F)n(C)c2=O)c(F)cc1Cl (stereo not shown)
Solution: 6.71

---

biological target: Spirulina subsalsa PPO CyPPO16 (SEQ ID NO: 1) variant V305M (MBP fusion); assay: PPO enzyme inhibition (IC50), MBP-fused PPO; details: 50 μM protoporphyrinogen IX, pH 8.0, room temperature, 30 min
attribute.measured: IC50 (µM)
Supply the numeric figure in µM, leaving out any unit text.

Problem: Requested field: IC50. Item: Cc1nn(-c2cc(NS(C)(=O)=O)c(Cl)cc2Cl)c(=O)n1C(F)F
Solution: 0.305

Problem: Any idea what IC50 was measured for C#CCN1C(=O)COc2cc(F)c(N3C(=O)C4=C(CCCC4)C3=O)cc21 ?
Solution: 0.038

Problem: Can you share its IC50? I mean this compound: COC(=O)CCNC(=O)C(C)Sc1cc(-n2c(=O)cc(C(F)(F)F)n(C)c2=O)c(F)cc1Cl (stereo not drawn)
Solution: 0.043
